Target: HSPA2 (Homo sapiens)
Construct: His6 (N, cleaved yes); made in house; host or cells: E. coli (Codon plus)
Sequence (P54652 397-512 limits assumed): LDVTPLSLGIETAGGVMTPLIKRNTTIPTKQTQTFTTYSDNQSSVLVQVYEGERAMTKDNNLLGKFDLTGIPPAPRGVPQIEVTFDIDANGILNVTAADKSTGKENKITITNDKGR
Test: FP peptide binding assay, HSPA2 SBD
Details: 1 μM HSP70 SBD, 10 nM fluorescent peptide, read-out: A2 IC50
pIC50: −log10 of the molar value.
Parameter: pIC50

- CC(C)[C@H](NC(=O)c1cc2ccccc2[nH]1)C(=O)Nc1nccs1 [Compound 8]: 4.86

----------
Target: HSPA5 (Homo sapiens, UniProt P11021)
Sequence (P11021 419-632): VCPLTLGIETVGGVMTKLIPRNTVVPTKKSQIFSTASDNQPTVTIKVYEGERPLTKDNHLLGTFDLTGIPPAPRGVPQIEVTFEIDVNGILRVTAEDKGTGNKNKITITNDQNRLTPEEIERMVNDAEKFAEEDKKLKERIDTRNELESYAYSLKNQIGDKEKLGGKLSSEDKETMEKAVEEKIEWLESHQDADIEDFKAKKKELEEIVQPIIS
Experiment: FP peptide binding assay, HSPA5 (HSPA5-NRLLLTG interaction)
Set-up: His6 (N, cleaved yes); made in house; host or cells: E. coli (Codon plus)
Conditions: FP, 1 μM HSP70 SBD, 10 nM fluorescent peptide; read-out: A5 IC50
pIC50: −log10 of the molar value.
Parameter: pIC50

* CC(=O)c1ccc2[nH]c(C(=O)N[C@H](C(=O)Nc3nccs3)C(C)C)cc2c1 | 6.37

----------
Biological target: HSPA9 (Homo sapiens, UniProt P38646)
Construct: His6 (N, cleaved yes); made in house; host or cells: E. coli (Codon plus)
Sequence (P38646 442-679 limits assumed): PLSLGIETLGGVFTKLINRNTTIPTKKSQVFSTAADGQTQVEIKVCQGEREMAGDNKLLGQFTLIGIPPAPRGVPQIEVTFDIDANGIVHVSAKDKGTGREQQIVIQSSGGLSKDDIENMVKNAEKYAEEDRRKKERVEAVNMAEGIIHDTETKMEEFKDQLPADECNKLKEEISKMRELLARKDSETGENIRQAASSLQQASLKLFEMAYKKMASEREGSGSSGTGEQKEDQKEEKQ
Test: FP peptide binding assay, HSPA9 SBD
Settings: 1 μM HSP70 SBD, 10 nM fluorescent peptide, read-out: A9 IC50
Parameter: IC50 (µM)

• CC(C)[C@H](NC(=O)c1cc2ccccc2[nH]1)C(=O)Nc1nccs1 [Compound 8] = 4.3
